target: T1, deglycosylated V domain of human CD33 (human, UniProt P20138 18-139, limits assumed, N-glycans removed by PNGase); test: SPR, Fab captured, 37C;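 also: biacore 8K surface plasmon resonance with Fabs held on an amine-coupled anti-Fab antibody surface, soluble monomeric CD33 domain injected as analyte, double-referenced 1:1 binding fit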
T1 construct: V domain deglycosylated by PNGase before testing; also called deglycosylated V CD33
This section presents binders with their documented koff values.
Give a bare numeral; the unit s⁻¹ is implied.

Completed entries (count: 2):
binder="ADI-10177 Fab (Fab, V domains shown, Fab fragment; also called Ab2) VH: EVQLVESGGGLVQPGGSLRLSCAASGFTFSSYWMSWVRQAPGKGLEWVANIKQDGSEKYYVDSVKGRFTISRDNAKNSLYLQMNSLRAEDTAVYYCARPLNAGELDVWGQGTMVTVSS VL: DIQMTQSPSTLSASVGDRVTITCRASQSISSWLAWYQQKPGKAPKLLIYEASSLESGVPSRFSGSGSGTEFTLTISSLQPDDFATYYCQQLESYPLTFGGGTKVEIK" unit_string=s⁻¹ quantitative_result=0.0701
binder="ADI-11835 Fab (Fab, V domains shown, Fab fragment; also called Ab10; I35) VH: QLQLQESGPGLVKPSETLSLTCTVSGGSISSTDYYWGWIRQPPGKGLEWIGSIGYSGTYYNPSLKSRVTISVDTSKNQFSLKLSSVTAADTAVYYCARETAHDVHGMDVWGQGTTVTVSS VL: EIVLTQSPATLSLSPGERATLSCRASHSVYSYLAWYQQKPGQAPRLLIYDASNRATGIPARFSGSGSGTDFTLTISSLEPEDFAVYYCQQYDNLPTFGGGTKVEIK" unit_string=s⁻¹ quantitative_result=0.00779

For the next question, use this binder.
Tell me the measured koff of ADI-11828 Fab (Fab, V domains shown, Fab fragment; also called Ab27) VH: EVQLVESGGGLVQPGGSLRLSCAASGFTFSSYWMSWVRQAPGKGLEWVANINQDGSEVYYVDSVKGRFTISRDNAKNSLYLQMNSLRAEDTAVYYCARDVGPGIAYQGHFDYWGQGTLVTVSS VL: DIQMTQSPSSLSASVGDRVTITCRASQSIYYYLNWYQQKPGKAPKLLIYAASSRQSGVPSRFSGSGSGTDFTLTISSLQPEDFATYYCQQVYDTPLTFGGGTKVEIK , please.
0.0189
